# protocol-text: Phase 1/2 clinical study: pharmacokinetics
# Assay type: in vivo, human
# test-context: human, plasma, oral; Cycle 1 Day 15; 125 mg QD; geometric mean; read-out: Cmin
property: concentration at 15 day (ng/mL)
Numeric only. Scale: ng/mL

Lookup: # query: concentration at 15 day of entry "CCn1ncc2c1-c1cnc(N)c(c1)O[C@H](C)c1cc(F)ccc1-c1nn(C)nc1C2"
Found: 141

----------
# protocol-text: Phase 1/2 clinical study: pharmacokinetics
# Assay type: in vivo, human
# test-context: human, plasma, oral, 50 mg, Cycle 1 Day 1; 50 mg QD; geometric mean
property: Cmax
A complete answer gives the number and then names the unit.

Lookup: # query: Cmax of entry "CCn1ncc2c1-c1cnc(N)c(c1)O[C@H](C)c1cc(F)ccc1-c1nn(C)nc1C2"
Found: 338 ng/mL

----------
# protocol-text: Phase 1/2 clinical study: pharmacokinetics
# Assay type: in vivo, human
# test-context: human, plasma, oral, 50 mg, Cycle 1 Day 15; 50 mg QD; geometric mean; read-out: Vz/F
property: Vd/F (L)
Numeric only. Scale: L

Lookup: # query: Vd/F of entry CCn1ncc2c1-c1cnc(N)c(c1)O[C@H](C)c1cc(F)ccc1-c1nn(C)nc1C2 [Compound 1]
Found: 228

----------
# protocol-text: Phase 1/2 clinical study: pharmacokinetics
# Assay type: in vivo, human
# test-context: human, plasma, oral; Cycle 1 Day 15; 25 mg QD; geometric mean
property: AUC (ng·h/mL)
Numeric only. Scale: ng·h/mL

Lookup: # query: AUC of entry CCn1ncc2c1-c1cnc(N)c(c1)O[C@H](C)c1cc(F)ccc1-c1nn(C)nc1C2 [Compound 1]
Found: 2790

----------
# protocol-text: Phase 1/2 clinical study: pharmacokinetics
# Assay type: in vivo, human
# test-context: human, plasma, oral, 50 mg, Cycle 1 Day 15; 50 mg QD; arithmetic mean; read-out: t1/2 (converted)
property: half-life (h)
Numeric only. Scale: h

Lookup: # query: half-life of entry "CCn1ncc2c1-c1cnc(N)c(c1)O[C@H](C)c1cc(F)ccc1-c1nn(C)nc1C2"
Found: 16

----------
# test-target: UniProtKB P05177
# Sequence (P05177 1-516): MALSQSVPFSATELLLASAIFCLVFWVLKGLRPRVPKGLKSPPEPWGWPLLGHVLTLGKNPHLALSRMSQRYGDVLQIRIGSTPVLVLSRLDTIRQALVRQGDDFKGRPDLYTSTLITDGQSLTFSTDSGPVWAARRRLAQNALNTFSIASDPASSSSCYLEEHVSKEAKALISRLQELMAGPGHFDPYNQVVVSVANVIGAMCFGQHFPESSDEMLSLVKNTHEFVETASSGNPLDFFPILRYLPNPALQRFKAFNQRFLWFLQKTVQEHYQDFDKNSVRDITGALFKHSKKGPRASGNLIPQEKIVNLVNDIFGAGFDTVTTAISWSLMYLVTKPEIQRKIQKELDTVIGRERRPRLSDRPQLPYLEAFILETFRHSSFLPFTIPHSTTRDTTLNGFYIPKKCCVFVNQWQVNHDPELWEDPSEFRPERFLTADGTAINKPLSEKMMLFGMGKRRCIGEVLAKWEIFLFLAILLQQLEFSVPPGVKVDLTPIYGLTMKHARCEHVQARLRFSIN
property: IC50

Lookup: # query: IC50 of entry "CCn1ncc2c1-c1cnc(N)c(c1)O[C@H](C)c1cc(F)ccc1-c1nn(C)nc1C2"
Found: > 100 µM

----------
# protocol-text: Phase 1/2 clinical study: pharmacokinetics
# Assay type: in vivo, human
# test-context: human, plasma, oral, 50 mg, Cycle 1 Day 1; 50 mg QD; geometric mean
property: AUC(0-inf) (ng·h/mL)
Numeric only. Scale: ng·h/mL

Lookup: # query: AUC(0-inf) of entry CCn1ncc2c1-c1cnc(N)c(c1)O[C@H](C)c1cc(F)ccc1-c1nn(C)nc1C2 [Compound 1]
Found: 4090

----------
# protocol-text: Phase 1/2 clinical study: pharmacokinetics
# Assay type: in vivo, human
# test-context: human, plasma, oral, 50 mg, Cycle 1 Day 15; 50 mg QD; median
property: Tmax
A complete answer gives the number and then names the unit.

Lookup: # query: Tmax of entry "CCn1ncc2c1-c1cnc(N)c(c1)O[C@H](C)c1cc(F)ccc1-c1nn(C)nc1C2"
Found: 30 min

----------
# protocol-text: Phase 1/2 clinical study: pharmacokinetics
# Format: in vivo, human
# test-context: human, plasma, oral; Cycle 1 Day 15; 75 mg QD; geometric mean; read-out: Cmin
property: concentration at 15 day (ng/mL)
Numeric only. Scale: ng/mL

Lookup: # query: concentration at 15 day of entry "CCn1ncc2c1-c1cnc(N)c(c1)O[C@H](C)c1cc(F)ccc1-c1nn(C)nc1C2"
Found: 187

----------
# protocol-text: Phase 1/2 clinical study: pharmacokinetics
# Type: in vivo, human
# test-context: human, plasma, oral, 25 mg, Cycle 1 Day 15; 25 mg QD; geometric mean
property: AUC(0-inf) (ng·h/mL)
Numeric only. Scale: ng·h/mL

Lookup: # query: AUC(0-inf) of entry CCn1ncc2c1-c1cnc(N)c(c1)O[C@H](C)c1cc(F)ccc1-c1nn(C)nc1C2 [Compound 1]
Found: 4900

----------
# protocol-text: Phase 1/2 clinical study: pharmacokinetics
# Type: in vivo, human
# test-context: human, plasma, oral, 125 mg, Cycle 1 Day 15; 125 mg QD; single value; read-out: t1/2 (converted)
property: half-life (h)
Numeric only. Scale: h

Lookup: # query: half-life of entry "CCn1ncc2c1-c1cnc(N)c(c1)O[C@H](C)c1cc(F)ccc1-c1nn(C)nc1C2"
Found: 14.4

----------
# protocol-text: Phase 1/2 clinical study: pharmacokinetics
# Type: in vivo, human
# test-context: human, plasma, oral; Cycle 1 Day 15; 75 mg QD; geometric mean
property: AUC (ng·h/mL)
Numeric only. Scale: ng·h/mL

Lookup: # query: AUC of entry "CCn1ncc2c1-c1cnc(N)c(c1)O[C@H](C)c1cc(F)ccc1-c1nn(C)nc1C2"
Found: 7010

----------
# protocol-text: Phase 1/2 clinical study: pharmacokinetics
# Type: in vivo, human
# test-context: human, plasma, oral; Cycle 1 Day 1; 50 mg QD; geometric mean
property: AUC(0-t) (ng·h/mL)
Numeric only. Scale: ng·h/mL

Lookup: # query: AUC(0-t) of entry CCn1ncc2c1-c1cnc(N)c(c1)O[C@H](C)c1cc(F)ccc1-c1nn(C)nc1C2 [Compound 1]
Found: 3090

----------
# protocol-text: Phase 1/2 clinical study: pharmacokinetics
# Assay type: in vivo, human
# test-context: human, plasma, oral, 100 mg, Cycle 1 Day 1; 100 mg QD; geometric mean
property: AUC(0-inf) (ng·h/mL)
Numeric only. Scale: ng·h/mL

Lookup: # query: AUC(0-inf) of entry "CCn1ncc2c1-c1cnc(N)c(c1)O[C@H](C)c1cc(F)ccc1-c1nn(C)nc1C2"
Found: 8690

----------
# protocol-text: Phase 1/2 clinical study: pharmacokinetics
# Assay type: in vivo, human
# test-context: human, plasma, oral, 25 mg, Cycle 1 Day 1; 25 mg QD; arithmetic mean; read-out: t1/2 (converted)
property: half-life (h)
Numeric only. Scale: h

Lookup: # query: half-life of entry "CCn1ncc2c1-c1cnc(N)c(c1)O[C@H](C)c1cc(F)ccc1-c1nn(C)nc1C2"
Found: 15.5

----------
# test-target: CYP2B6 (Homo sapiens)
# Sequence (P20813 whole entry): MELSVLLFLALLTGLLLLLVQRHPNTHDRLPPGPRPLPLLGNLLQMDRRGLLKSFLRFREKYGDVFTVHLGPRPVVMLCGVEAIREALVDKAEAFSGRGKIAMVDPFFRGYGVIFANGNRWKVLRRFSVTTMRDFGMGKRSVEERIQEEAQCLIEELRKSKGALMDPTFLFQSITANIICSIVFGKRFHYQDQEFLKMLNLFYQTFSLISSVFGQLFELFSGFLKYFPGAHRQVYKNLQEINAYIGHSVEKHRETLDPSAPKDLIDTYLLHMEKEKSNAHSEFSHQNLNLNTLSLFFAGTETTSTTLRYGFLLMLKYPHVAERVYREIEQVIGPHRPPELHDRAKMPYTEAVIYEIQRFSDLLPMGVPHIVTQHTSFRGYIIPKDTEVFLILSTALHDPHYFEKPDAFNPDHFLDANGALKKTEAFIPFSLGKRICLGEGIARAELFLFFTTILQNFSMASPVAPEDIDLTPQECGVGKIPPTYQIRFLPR
property: IC50

Lookup: # query: IC50 of entry CCn1ncc2c1-c1cnc(N)c(c1)O[C@H](C)c1cc(F)ccc1-c1nn(C)nc1C2 [Compound 1]
Found: > 100 µM

----------
# protocol-text: Phase 1/2 clinical study: pharmacokinetics
# Format: in vivo, human
# test-context: human, plasma, oral, 75 mg, Cycle 1 Day 15; 75 mg QD; median
property: Tmax (h)
Numeric only. Scale: h

Lookup: # query: Tmax of entry "CCn1ncc2c1-c1cnc(N)c(c1)O[C@H](C)c1cc(F)ccc1-c1nn(C)nc1C2"
Found: 1

----------
# protocol-text: Phase 1/2 clinical study: pharmacokinetics
# Assay type: in vivo, human
# test-context: human, plasma, oral; Cycle 1 Day 15; 25 mg QD; geometric mean; read-out: Cmin
property: concentration at 15 day (ng/mL)
Numeric only. Scale: ng/mL

Lookup: # query: concentration at 15 day of entry "CCn1ncc2c1-c1cnc(N)c(c1)O[C@H](C)c1cc(F)ccc1-c1nn(C)nc1C2"
Found: 67.2

----------
# protocol-text: Phase 1/2 clinical study: pharmacokinetics
# Assay type: in vivo, human
# test-context: human, plasma, oral, 25 mg, Cycle 1 Day 15; 25 mg QD; geometric mean
property: Cmax (ng/mL)
Numeric only. Scale: ng/mL

Lookup: # query: Cmax of entry "CCn1ncc2c1-c1cnc(N)c(c1)O[C@H](C)c1cc(F)ccc1-c1nn(C)nc1C2"
Found: 250

----------
# protocol-text: Phase 1/2 clinical study: pharmacokinetics
# Format: in vivo, human
# test-context: human, plasma, oral, 50 mg, Cycle 1 Day 1; 50 mg QD; arithmetic mean; read-out: t1/2 (converted)
property: half-life (h)
Numeric only. Scale: h

Lookup: # query: half-life of entry CCn1ncc2c1-c1cnc(N)c(c1)O[C@H](C)c1cc(F)ccc1-c1nn(C)nc1C2 [Compound 1]
Found: 12
